# Tested on: Pseudomonas aeruginosa
# assay_remarks: Antimicrobial activity against Pseudomonas aeruginosa isolate IMCJ799 by microdilution method
# Assay type: functional
MIC: recorded values

Q. Suppose we examine the compound CCN[C@@H]1C[C@H](N)[C@@H](O[C@H]2OC(CN)=CC[C@H]2N)[C@H](O)[C@H]1O[C@H]1OC[C@](C)(O)[C@H](NC)[C@H]1O [NETILMICIN] ; what MIC value has been reported?
A. > 128 µg/mL

Q. What do you get for C[C@@H](O)[C@H]1C(=O)N2C(C(=O)O)=C(S[C@@H]3CN[C@H](C(=O)N(C)C)C3)[C@H](C)[C@H]12 [MEROPENEM] ?
A. > 512 µg/mL

Q. What do you get for NC[C@H]1O[C@H](O[C@H]2[C@H](O)[C@@H](O[C@H]3O[C@H](CO)[C@@H](O)[C@H](N)[C@H]3O)[C@H](N)C[C@@H]2N)[C@H](O)[C@@H](O)[C@@H]1O [KANAMYCIN] ?
A. > 128 µg/mL

Q. What do you get for NC[C@@H]1CC[C@@H](N)[C@@H](O[C@H]2[C@H](O)[C@@H](O[C@H]3O[C@H](CO)[C@@H](O)[C@H](N)[C@H]3O)[C@H](N)C[C@@H]2N)O1 [DIBEKACIN] ?
A. > 128 µg/mL

Q. What do you get for CC1COc2c(N3CCN(C)CC3)c(F)cc3c(=O)c(C(=O)O)cn1c23 (stereo unspecified) [OFLOXACIN] ?
A. > 128 µg/mL

Q. What do you get for CN[C@@H]1[C@@H](O)C(O[C@@H]2[C@@H](O)[C@H](OC3O[C@H](CN)[C@@H](O)[C@H](O)[C@H]3O)[C@@H](N)C[C@H]2NC(=O)[C@@H](O)CN)OC[C@]1(C)O (stereo partly specified) [ISOPAMICIN] ?
A. > 128 µg/mL

Cited source: ChEMBL document CHEMBL1649468
